Value source: patent US20050228016A1

# target_entity: Gal4DBD/AaEcR (DEF) (Aedes aegypti, UniProt P49880)
# Construct: The wildtype D, E, and F domains from mosquito Aedes aegypti EcR; expressed in transfected cells; host or cells: 3T3 cells
# Sequence (P28704 286-520 A311G/G315S/G445S/I449V): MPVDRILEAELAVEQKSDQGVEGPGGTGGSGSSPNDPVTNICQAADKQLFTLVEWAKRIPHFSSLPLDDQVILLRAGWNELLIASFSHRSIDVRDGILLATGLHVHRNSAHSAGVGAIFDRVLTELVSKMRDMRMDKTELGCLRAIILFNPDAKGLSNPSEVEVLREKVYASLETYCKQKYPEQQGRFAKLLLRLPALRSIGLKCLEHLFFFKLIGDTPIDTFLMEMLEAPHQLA
# Sequence (P49880 405-776): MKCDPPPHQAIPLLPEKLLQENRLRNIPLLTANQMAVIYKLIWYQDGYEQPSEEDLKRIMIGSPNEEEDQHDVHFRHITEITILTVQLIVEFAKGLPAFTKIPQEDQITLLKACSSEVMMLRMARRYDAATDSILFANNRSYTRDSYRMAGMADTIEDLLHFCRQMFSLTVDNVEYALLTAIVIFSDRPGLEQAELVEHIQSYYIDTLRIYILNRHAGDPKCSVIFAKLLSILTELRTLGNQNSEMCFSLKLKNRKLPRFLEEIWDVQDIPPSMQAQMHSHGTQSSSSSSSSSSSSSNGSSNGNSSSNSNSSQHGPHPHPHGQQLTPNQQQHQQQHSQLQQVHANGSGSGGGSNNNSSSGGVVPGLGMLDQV
# procedure_summary: cell-based
# Assay type: cell-based
# condition: 33 μM; 3T3 cells; 48 h; average of two wells
The following molecules are shown together with reported Fold Induction Average, AA_3T3V1 Assay 33 μM values.
readout: Fold Induction Average, AA_3T3V1 Assay 33 μM (fold)

                                   molecule  measured
0  CC1CC(N(C(=O)C2CC2)c2ccccc2)c2ccccc2N1C(=O)C1CC1 (stereo not shown)         1
1  CCOC(=O)C(=O)N1c2ccccc2C(N(C(=O)C(=O)OCC)c2ccccc2)CC1C (stereo not shown)        47
2  CCc1ccc(C(=O)N2c3ccc(F)cc3C(Nc3ccc(F)cc3)CC2C)cc1 (stereo not shown)       113
3  COc1ccc(C(=O)N2c3ccc(F)cc3[C@@H](Nc3ccc(F)cc3)C[C@@H]2C)cc1 (relative stereo)       378
4  C[C@H]1C[C@@H](Nc2ccccc2)c2ccccc2N1C(=O)c1ccc(F)c(F)c1 (relative stereo)        83
5  CC1CC(N(C(=O)c2cccc(Br)c2)c2ccccc2)c2ccccc2N1C(=O)c1cccc(O)c1 (stereo not shown)        58
6  CC1CC(Nc2ccc(F)cc2)c2cc(F)ccc2N1C(=O)c1cccc(F)c1 (stereo not shown)       108

---

# target_entity: Gal4DBD/AaEcR (DEF) (Aedes aegypti)
# Construct: The wildtype D, E, and F domains from mosquito Aedes aegypti EcR; expressed in transfected cells; host or cells: 3T3 cells
# procedure_summary: cell-based
# Type: cell-based
# condition: 33 μM; 3T3 cells; 48 h; average of two wells
The following molecules are shown together with reported Fold Induction Average, AA_3T3V1 Assay 33 μM values.
readout: Fold Induction Average, AA_3T3V1 Assay 33 μM

>>> df
                                    molecule  measured
 0  CC1CC(Nc2ccccc2)c2ccccc2N1C(=O)Nc1ccccc1 (stereo not drawn) [Compound I-211]  638 fold
 1  C[C@H]1C[C@@H](Nc2ccc(F)cc2)c2cc(F)ccc2N1C(=O)c1ccc(F)c(C(F)(F)F)c1 (relative stereo)    4 fold
 2  CCc1c(OC)cccc1C(=O)N1c2ccccc2C(Nc2ccccc2)CC1C (stereo not drawn)  636 fold
 3  CC1CC(Nc2ccccc2)c2ccccc2N1C(=O)c1cccc(C(F)(F)F)c1 (stereo not drawn)   71 fold
 4  CCCCC(=O)N1c2ccccc2[C@@H](Nc2ccccc2)C[C@@H]1C (relative stereo)  252 fold
 5  CC(=O)N1c2ccccc2C(N(C(=O)c2ccc(F)cc2)c2ccccc2)CC1C (stereo not drawn)    1 fold
 6  CCC(=O)N1c2ccccc2C(N(C(=O)c2ccc([N+](=O)[O-])cc2)c2ccccc2)CC1C (stereo not drawn)    1 fold
 7  Cc1ccc(NC2CC(C)N(C(=O)c3ccc(Cl)cc3)c3ccc(C)cc32)cc1 (stereo not drawn) [Compound I-144]   73 fold
 8  CC1CC(N(C(=O)C(F)(F)F)c2ccccc2)c2ccccc2N1C(=O)C(F)(F)F (stereo not drawn)    1 fold
 9  CCCCCCCCC(=O)N1c2ccccc2[C@@H](Nc2ccccc2)C[C@@H]1C (relative stereo)   22 fold
10  COc1cccc(NC2CC(C)N(C(=O)c3ccc(C)cc3)c3ccccc32)c1 (mixture of isomers)    8 fold
11  C[C@H]1C[C@H](Nc2ccc(F)cc2)c2cc(F)ccc2N1C(=O)Nc1ccc(Cl)cc1 (relative stereo)  939 fold
12  C[C@H]1C[C@@H](Nc2ccc(F)cc2)c2cc(F)ccc2N1C(=O)c1ccc(C(F)(F)F)c(F)c1 (relative stereo)  147 fold
13  CC1CC(Nc2ccccc2)c2ccccc2N1C(=O)COc1ccc(Cl)cc1 (stereo not drawn)    9 fold
14  Cc1ccc(C(=O)N2c3ccccc3C(Nc3ccc(Cl)cc3)CC2C)cc1 (mixture of isomers)  114 fold
